Measured IC50 by item
# MEASURED ON: HCV cap-independent translation
# TEST: In vitro translation assay, FF-HCV-Ren construct, cap-independent (Ren luciferase)

CCn1c(/C=C/C(=O)c2c(-c3ccccc3)c3cc(Cl)ccc3n(CC)c2=O)nc2ccccc21; 10 to 20 µM
Cc1ccc2[nH]c(/C=C/C(=O)c3c(-c4ccccc4)c4cc(Cl)cnc4[nH]c3=O)nc2c1; 10 to 20 µM
O=C(/C=C/c1nc2ccccc2[nH]1)c1c(-c2cccs2)c2cc(Cl)ccc2[nH]c1=O; 10 to 20 µM
O=C(/C=C/c1ccccc1)c1c(-c2ccccc2)c2cc([N+](=O)[O-])ccc2[nH]c1=O; 2 to 10 µM
O=C(/C(Br)=C\c1cncc(F)c1)c1c(-c2ccccc2)c2cc(Cl)ccc2[nH]c1=O; 2 to 10 µM

Exercise: # returns recorded IC50 (system: HCV cap-independent translation) for O=C(/C=C/c1cncc(F)c1)c1c(-c2ccc(F)cc2)c2cc(Cl)ccc2[nH]c1=O
Key: 2 to 10 µM

Exercise: Further, for O=C(/C=C/c1ccc(Br)cn1)c1c(-c2ccccc2)c2cc(Cl)ccc2[nH]c1=O ?
Key: 2 to 10 µM

Exercise: Now this one: Cc1cncc(-c2c(C(=O)/C=C/c3ccccn3)c(=O)[nH]c3ccc(Cl)cc23)c1
Key: 10 to 20 µM

Exercise: Input O=C(/C=C/c1ccncc1)c1c(-c2ccccc2)c2cc(Cl)ccc2[nH]c1=O
Key: 2 to 10 µM

Exercise: Okay, and O=C(/C=C/c1nc2ccccc2[nH]1)c1c(-c2ccc(Cl)cc2)c2cc(Cl)ccc2[nH]c1=O ?
Key: 10 to 20 µM

Exercise: What would you report for O=C(/C=C/c1cncc(F)c1)c1c(-c2ccc(Br)cc2)c2cc(Cl)ccc2[nH]c1=O ?
Key: 2 to 10 µM

Exercise: Next: O=C(/C=C/c1cc2ccccc2s1)c1c(-c2ccccc2)c2cc(Cl)ccc2[nH]c1=O
Key: 2 to 10 µM

Exercise: Now give it for O=C(/C=C/c1cncc(C(F)(F)F)c1)c1c(-c2ccccc2)c2cc(Cl)ccc2[nH]c1=O too.
Key: 2 to 10 µM
